Assay text: Aqueous solubility of Dorzolamide in the presence of Timolol with HP, PEG, Polysorbate 80 (Experimental Example 3)
Format: physicochemical
Measurement context: aqueous buffer, thermodynamic from solid; pH 7, 10 mM phosphate buffer, no additives
Experimental readout: solubility thermodynamic at 30 min

[[record]]
molecule = "CCN[C@H]1C[C@H](C)S(=O)(=O)c2sc(S(N)(=O)=O)cc21 [Dorzolamide]"
experimental_readout = "solubility thermodynamic at 30 min"
endpoint_result = "< 5000 µg/mL"

